The reported measurements were obtained from patent US12441726B2.

Molecular target: BRM (Homo sapiens, UniProt P51531)
Sequence (P51531 whole entry): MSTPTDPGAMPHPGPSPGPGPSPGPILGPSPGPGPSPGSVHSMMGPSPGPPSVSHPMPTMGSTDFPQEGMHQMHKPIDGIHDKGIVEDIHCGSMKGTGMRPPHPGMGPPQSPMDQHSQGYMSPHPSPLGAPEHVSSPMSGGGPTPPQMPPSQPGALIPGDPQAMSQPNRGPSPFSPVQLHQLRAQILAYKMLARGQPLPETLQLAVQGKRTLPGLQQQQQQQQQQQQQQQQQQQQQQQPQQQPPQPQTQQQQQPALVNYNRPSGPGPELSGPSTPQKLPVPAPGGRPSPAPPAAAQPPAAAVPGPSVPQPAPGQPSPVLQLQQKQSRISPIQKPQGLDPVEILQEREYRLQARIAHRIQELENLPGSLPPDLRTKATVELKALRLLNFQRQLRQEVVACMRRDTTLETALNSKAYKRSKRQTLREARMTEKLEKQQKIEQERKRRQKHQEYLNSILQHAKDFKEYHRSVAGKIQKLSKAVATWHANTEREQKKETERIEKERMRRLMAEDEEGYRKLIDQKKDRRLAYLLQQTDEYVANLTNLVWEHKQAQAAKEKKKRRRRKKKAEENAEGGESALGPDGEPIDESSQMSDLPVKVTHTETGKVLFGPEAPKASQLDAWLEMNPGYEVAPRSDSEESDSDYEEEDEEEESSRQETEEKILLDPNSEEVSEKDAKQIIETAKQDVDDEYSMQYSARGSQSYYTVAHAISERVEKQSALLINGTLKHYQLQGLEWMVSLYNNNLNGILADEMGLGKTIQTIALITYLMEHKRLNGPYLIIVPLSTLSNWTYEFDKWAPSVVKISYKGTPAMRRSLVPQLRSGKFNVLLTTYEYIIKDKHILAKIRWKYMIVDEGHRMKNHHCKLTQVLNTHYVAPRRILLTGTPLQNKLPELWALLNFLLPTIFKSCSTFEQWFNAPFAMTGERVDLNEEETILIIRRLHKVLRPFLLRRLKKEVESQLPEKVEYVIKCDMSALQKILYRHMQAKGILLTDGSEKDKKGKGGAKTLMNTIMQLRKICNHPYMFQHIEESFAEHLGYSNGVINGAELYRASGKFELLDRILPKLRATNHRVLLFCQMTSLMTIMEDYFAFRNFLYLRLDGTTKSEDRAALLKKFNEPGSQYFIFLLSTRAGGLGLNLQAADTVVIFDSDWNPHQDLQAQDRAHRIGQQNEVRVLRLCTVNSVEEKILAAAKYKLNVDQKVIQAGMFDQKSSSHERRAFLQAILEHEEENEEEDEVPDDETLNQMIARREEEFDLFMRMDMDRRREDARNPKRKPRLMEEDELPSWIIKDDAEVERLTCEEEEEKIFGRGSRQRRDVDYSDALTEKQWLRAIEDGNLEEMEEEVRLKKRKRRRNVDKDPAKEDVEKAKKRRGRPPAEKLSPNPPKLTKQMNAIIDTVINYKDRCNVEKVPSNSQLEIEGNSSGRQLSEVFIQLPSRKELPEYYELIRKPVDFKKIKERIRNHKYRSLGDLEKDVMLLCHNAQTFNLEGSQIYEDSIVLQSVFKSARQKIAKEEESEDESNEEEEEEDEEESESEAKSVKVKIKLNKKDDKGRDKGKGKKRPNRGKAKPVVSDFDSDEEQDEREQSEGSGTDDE
Test: ATPase catalytic activity assay (ADP-Glo), BRM
Conditions: 30 nM BRM, 400 μM ATP
For each of the compounds below, state its BRM Max % Inhibition.
Use % as the unit, but write only the number.

The compound listed as C[C@@]1(F)COCc2ccc(C(=O)NCc3cc4nc(-c5cccc(C6(O)CCOC6)n5)ccc4cn3)cc21 (stereo partly shown) [Compound 249] has a reported BRM Max % Inhibition of 97

BRM Max % Inhibition for C[C@@]1(F)COCc2ncc(C(=O)NCc3cc4nc(-c5ccnc(N6CCC6)n5)cnc4cn3)cc21 [Compound 183] is 98

The recorded BRM Max % Inhibition for entry CN(C)C(=O)c1cccc(-c2ccc3cnc(CNC(=O)c4ccc5c(c4)[C@](C)(C#N)COC5)cc3n2)n1 [Compound 464] equals 88

response.value for COc1cncc(-c2ccc3cnc(CNC(=O)c4ccc5c(c4)[C@](C)(C#N)COC5)cc3n2)n1 [Compound 423] (field: BRM Max % Inhibition) = 98

Lab note: measured BRM Max % Inhibition of C[C@@]1(C#N)COCc2ccc(C(=O)NCc3cc4nc(-c5cccc(N6CCCC6=O)n5)ccc4cn3)cc21 [Compound 378] was 100

Sure, the documented BRM Max % Inhibition for C[C@@]1(C#N)COCc2ccc(C(=O)NCc3cc(N4Cc5ccncc5C4)ccn3)cc21 [Compound 53] is 88

The recorded BRM Max % Inhibition for COc1nn(C)cc1-c1ccc2cnc(CNC(=O)c3cnc4c(c3)[C@](C)(F)COC4)cc2n1 [Compound 334] is 96

---

Molecular target: BRG-1 (Homo sapiens, UniProt P51532)
Sequence (P51532 whole entry): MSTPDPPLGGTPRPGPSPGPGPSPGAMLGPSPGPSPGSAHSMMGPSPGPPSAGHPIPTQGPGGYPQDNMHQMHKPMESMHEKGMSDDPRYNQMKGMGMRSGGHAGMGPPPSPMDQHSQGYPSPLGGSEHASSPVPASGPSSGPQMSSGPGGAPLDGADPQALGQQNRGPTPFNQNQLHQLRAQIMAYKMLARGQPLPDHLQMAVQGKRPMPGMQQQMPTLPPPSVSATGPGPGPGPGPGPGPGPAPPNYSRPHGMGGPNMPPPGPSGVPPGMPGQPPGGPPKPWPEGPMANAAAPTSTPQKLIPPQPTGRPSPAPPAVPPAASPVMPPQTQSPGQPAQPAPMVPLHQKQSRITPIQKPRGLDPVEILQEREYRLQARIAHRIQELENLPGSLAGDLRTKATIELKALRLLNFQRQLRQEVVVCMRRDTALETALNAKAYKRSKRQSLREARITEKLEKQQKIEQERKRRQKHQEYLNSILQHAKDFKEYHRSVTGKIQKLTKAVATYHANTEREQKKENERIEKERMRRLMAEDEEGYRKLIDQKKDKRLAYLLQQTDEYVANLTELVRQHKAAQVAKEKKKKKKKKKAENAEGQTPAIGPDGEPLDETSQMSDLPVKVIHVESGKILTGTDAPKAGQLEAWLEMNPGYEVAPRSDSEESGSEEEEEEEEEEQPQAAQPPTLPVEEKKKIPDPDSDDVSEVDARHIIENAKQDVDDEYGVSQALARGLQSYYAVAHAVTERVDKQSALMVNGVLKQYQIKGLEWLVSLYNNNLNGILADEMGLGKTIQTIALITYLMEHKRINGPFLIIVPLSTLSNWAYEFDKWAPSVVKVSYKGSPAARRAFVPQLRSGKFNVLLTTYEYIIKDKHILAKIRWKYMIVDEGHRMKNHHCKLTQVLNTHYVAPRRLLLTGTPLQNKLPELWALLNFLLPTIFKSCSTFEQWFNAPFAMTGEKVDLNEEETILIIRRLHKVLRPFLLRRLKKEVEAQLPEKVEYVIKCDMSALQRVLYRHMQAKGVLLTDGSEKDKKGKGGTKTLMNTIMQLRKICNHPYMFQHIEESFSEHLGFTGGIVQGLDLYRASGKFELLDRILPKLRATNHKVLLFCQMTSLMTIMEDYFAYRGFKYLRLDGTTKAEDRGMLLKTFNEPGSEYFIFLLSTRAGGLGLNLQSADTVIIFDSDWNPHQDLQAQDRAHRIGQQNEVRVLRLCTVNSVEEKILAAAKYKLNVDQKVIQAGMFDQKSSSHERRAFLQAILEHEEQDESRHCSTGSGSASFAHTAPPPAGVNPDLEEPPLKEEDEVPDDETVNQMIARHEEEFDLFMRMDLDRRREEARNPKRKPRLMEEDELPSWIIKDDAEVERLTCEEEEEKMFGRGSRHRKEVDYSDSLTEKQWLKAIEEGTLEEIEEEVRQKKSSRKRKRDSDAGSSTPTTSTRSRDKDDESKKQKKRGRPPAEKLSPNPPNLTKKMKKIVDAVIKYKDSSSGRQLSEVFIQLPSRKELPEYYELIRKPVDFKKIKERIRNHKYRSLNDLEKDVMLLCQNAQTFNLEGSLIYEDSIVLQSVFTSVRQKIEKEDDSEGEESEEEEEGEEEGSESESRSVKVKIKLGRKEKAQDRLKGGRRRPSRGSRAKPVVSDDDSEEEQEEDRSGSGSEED
Assay: ATPase catalytic activity assay (ADP-Glo), BRG-1
What IC50 was measured for each of the following?

GET /value?item= `C[C@@]1(C#N)COCc2ccc(C(=O)NCc3cc4nc(-c5cnn(C6COC6)c5)ccc4cn3)cc21` &field=IC50 returns > 1000 nM

// IC50 lookup, compound = `COc1cc(N2CCC2)ccc1-c1ccc2cnc(CNC(=O)c3ccc4c(c3)[C@](C)(C#N)COC4)cc2n1` , result: 100 to 500 nM

Consider `C[C@@]1(C#N)COCc2ccc(C(=O)NCc3cc4nc(-c5ccnc(N6CC[C@H](F)C6)n5)ccc4cn3)cc21` . Its measured IC50 is 100 to 500 nM

The reported value for `COCCNC(=O)c1cccc(-c2ccc3cnc(CNC(=O)c4ccc5c(c4)[C@](C)(C#N)COC5)cc3n2)c1` in terms of IC50 is 500 to 1000 nM

---

Target: BRM (Homo sapiens, UniProt P51531)
Assay: ATPase catalytic activity assay (ADP-Glo), BRM
Conditions: 30 nM BRM, 400 μM ATP
testReadout: BRM Max % Inhibition (%)
Give a bare numeral; the unit % is implied.

Lab book: BRM Max % Inhibition of `COc1ncccc1-c1ccc2nnc(CNC(=O)c3ccc4c(c3)[C@](C)(C#N)COC4)cc2c1` noted as 97

`COc1cccc(/C=C/c2ccnc(CNC(=O)c3ccc4c(c3)[C@](C)(C#N)COC4)c2)c1` yielded BRM Max % Inhibition of 97

Lab book: BRM Max % Inhibition of `COc1ccc(F)cc1-c1ccc2cnc(CNC(=O)c3ccc4c(c3)[C@](C)(C#N)COC4)cc2n1` noted as 98

Per the record, `C[C@@]1(C#N)COCc2ccc(C(=O)NCc3cc4cc(-c5cccc(C6(O)CC6)n5)ccc4cn3)cc21` has BRM Max % Inhibition of 102

Measured BRM Max % Inhibition, `COc1cc(-c2ccc3cnc(CNC(=O)c4ccc5c(c4)[C@](C)(C#N)COC5)cc3n2)ccn1` : 97

Data point: `C[C@@]1(F)COCc2c(F)cc(C(=O)NCc3cc4cc(-c5cncc(N6CCC6)n5)ccc4cn3)cc21` ; BRM Max % Inhibition = 104

`C[C@@]1(C#N)COCc2ccc(C(=O)NCc3cc4nc(-c5ccccc5)sc4cn3)cc21` has a reported BRM Max % Inhibition of 97

Entry under test: `COC(=O)c1cccc(C#Cc2ccnc(CNC(=O)c3ccc4c(c3)[C@](C)(C#N)CO4)c2)c1` . Its BRM Max % Inhibition was 76

Looking up `COC1CN(c2cncc(-c3ccc4cnc(CNC(=O)c5ccc6c(c5)[C@](C)(C#N)COC6)cc4n3)n2)C1` , I see its BRM Max % Inhibition listed as 96

Memo: `C[C@@]1(F)COCc2c(F)cc(C(=O)NCc3cc4nc(-c5cncc(N6CCC6)n5)ccc4cn3)cc21` , reported BRM Max % Inhibition: 98

GET /value?item= COC1(c2ccccc2)CCN(c2ccnc(CNC(=O)c3ccc4c(c3)[C@](C)(C#N)COC4)c2)C1 (some centres unmarked) &field=BRM Max % Inhibition returns 92

// BRM Max % Inhibition lookup, compound = `CN1CCC(c2cccc(-c3ccc4cnc(CNC(=O)c5ccc6c(c5)[C@](C)(C#N)COC6)cc4n3)n2)CC1` , result: 83

Noted for `Cc1cnn(-c2ccc3cnc(CNC(=O)c4ccc5c(c4)[C@](C)(C#N)COC5)cc3n2)c1` : its BRM Max % Inhibition reads 96

Lab book: BRM Max % Inhibition of `CN(C)c1cccc(-c2ccc3nnc(CNC(=O)c4ccc5c(c4)[C@](C)(C#N)COC5)cc3n2)n1` noted as 101

The compound listed as `C[C@@]1(C#N)COCc2ccc(C(=O)NCc3cc4nc(-c5ccc(C(F)F)nc5)ccc4cn3)cc21` shows BRM Max % Inhibition equal to 95

# compound `Cn1ccc2c(c1=O)CCN(c1ccnc(CNC(=O)c3ccc4c(c3)[C@](C)(C#N)COC4)c1)C2` ; its BRM Max % Inhibition = 84

response.value for `C[C@@]1(C#N)COCc2ccc(C(=O)NCc3nccc(/C=C/c4ccccc4)c3F)cc21` (field: BRM Max % Inhibition) = 98

---

Biological target: BRG-1 (Homo sapiens)
Experiment: ATPase catalytic activity assay (ADP-Glo), BRG-1
Details: 1 h, read-out: BRG1 Max % Inhibition, ADP-Glo, 30 nM BRG-1, 400 μM ATP
So basically, the class depends on measured Emax, and the ranges are group 1 = under 40%, group 2 = from 40% up to 80%, group 3 = 80% and over

In: Sort into band: COC(=O)N1CCCC(c2ccc3cnc(CNC(=O)c4ccc5c(c4)[C@](C)(C#N)COC5)cc3n2)C1 (some centres unmarked)
Out: group 2

In: Form: Item = `C[C@@]1(C#N)COCc2ccc(C(=O)NCc3cc(/C=C(\F)c4ccccc4)ccn3)cc21` ; Class = ?
Out: group 2

In: Exam item: assign `Cn1ccc2ncc(-c3ccc4cnc(CNC(=O)c5ccc6c(c5)[C@](C)(C#N)COC6)cc4n3)nc21` to the correct category.
Out: group 3

In: State the band of `C[C@@]1(F)COCc2ccc(C(=O)NCc3cc4nc(-c5cncc(N6CCOCC6)n5)ccc4cn3)cc21`
Out: group 3

In: In plain terms, what class is `C[C@@]1(C#N)CCNc2ccc(C(=O)NCc3cc4nc(-c5ccccc5)sc4cn3)cc21` ?
Out: group 1

In: Hey, which category is `Cn1ccc2c(-c3ccc4cnc(CNC(=O)c5ccc6c(c5)[C@](C)(C#N)COC6)cc4n3)cc(F)cc21` in, do you know?
Out: group 3

In: Exercise: read the entry C[C@@]1(C#N)COCc2ccc(C(=O)NCc3cc(N4CCC5CCCCC5C4)ccn3)cc21 (some centres unmarked) and state which class it falls under.
Out: group 1

---

Target: BRG-1 (Homo sapiens)
Assay: ATPase catalytic activity assay (ADP-Glo), BRG-1
pIC50: −log10 of the molar value.
Kindly state pIC50 for each of the entries shown.

Just so you know, measured pIC50 for `C[C@@H](O)c1cccc(-c2ccc3cnc(CNC(=O)c4cnc5c(c4)[C@](C)(F)COC5)cc3n2)n1` came out at < 6.00

Record `C[C@@]1(C#N)COCc2ccc(C(=O)NCc3cc4cc(-c5ccccc5)ccc4cn3)cc21` , field pIC50: < 6.00

compound `C[C@@]1(F)COCc2c(F)cc(C(=O)NCc3cc4nc(-c5ccccc5)ccc4cn3)cc21` , pIC50 observed: 6.00 to 6.30

For record `CN1CCN(c2cccc(-c3ccc4cnc(CNC(=O)c5ccc6c(c5)[C@](C)(C#N)COC6)cc4n3)c2)CC1` the listed pIC50 is < 6.00

Sure, the documented pIC50 for `COC1(c2cccc(-c3ccc4cnc(CNC(=O)c5ccc6c(c5)[C@](C)(C#N)COC6)cc4n3)n2)COC1` is 6.00 to 6.30

The compound `C[C@@]1(C#N)COCc2ccc(C(=O)NCc3cc(N4CC(c5ccccc5)C4)ccn3)cc21` showed pIC50 equal to < 6.00

Sample `COC[C@H](NC(=O)c1ccc2c(c1)[C@](C)(C#N)COC2)c1cc(/C=C/c2ccccc2)ccn1` ; pIC50 observed: < 6.00

Per the record, `Cn1cc(F)c2c(-c3ccc4cnc(CNC(=O)c5ccc6c(c5)[C@](C)(C#N)COC6)cc4n3)cccc21` has pIC50 of 6.30 to 7.00

Notebook: `C[C@@]1(F)COCc2ccc(C(=O)NCc3cc4nc(-c5ccnc(N6CC[C@@H]7COC[C@H]7C6)n5)ccc4cn3)cc21` , pIC50 read as > 7.00

Query `COCCN1CCC(c2cccc(-c3ccc4cnc(CNC(=O)c5ccc6c(c5)[C@](C)(C#N)COC6)cc4n3)n2)CC1` yields pIC50 of < 6.00

The value of pIC50 measured for the compound `C[C@@]1(C#N)COCc2ccc(C(=O)NCc3cc(N4CC(n5ccc6ccccc65)C4)ccn3)cc21` turned out to be 6.00 to 6.30

# pIC50 of `Cn1ccc2c(-c3ccc4cnc(CNC(=O)c5ccc6c(c5)[C@](C)(C#N)COC6)cc4n3)cccc21` = 6.30 to 7.00

Looking up `Cn1c(C(F)F)cc2c(-c3ccc4cnc(CNC(=O)c5ccc6c(c5)[C@](C)(C#N)COC6)cc4n3)cccc21` , I see its pIC50 listed as 6.30 to 7.00

Documented pIC50 of `C[C@@]1(F)COCc2ccc(C(=O)NCc3cc4nc(-c5ccc(=O)n(C6CC6)n5)ccc4cn3)cc21` : 6.00 to 6.30

The value of pIC50 measured for the compound `C[C@@]1(C#N)COc2ccc(C(=O)NCc3cc4nc(-c5ccccc5)ccc4cn3)cc21` turned out to be < 6.00

Short answer for `Cn1nc(-c2ccc3cnc(CNC(=O)c4ccc5c(c4)[C@](C)(C#N)COC5)cc3n2)cc1C(F)F` : pIC50 was 6.00 to 6.30
